Origin of values: ChEMBL document CHEMBL4261581

- system-tested: Cytochrome P450 2D6 (Homo sapiens)
- Sequence (P10635 whole entry): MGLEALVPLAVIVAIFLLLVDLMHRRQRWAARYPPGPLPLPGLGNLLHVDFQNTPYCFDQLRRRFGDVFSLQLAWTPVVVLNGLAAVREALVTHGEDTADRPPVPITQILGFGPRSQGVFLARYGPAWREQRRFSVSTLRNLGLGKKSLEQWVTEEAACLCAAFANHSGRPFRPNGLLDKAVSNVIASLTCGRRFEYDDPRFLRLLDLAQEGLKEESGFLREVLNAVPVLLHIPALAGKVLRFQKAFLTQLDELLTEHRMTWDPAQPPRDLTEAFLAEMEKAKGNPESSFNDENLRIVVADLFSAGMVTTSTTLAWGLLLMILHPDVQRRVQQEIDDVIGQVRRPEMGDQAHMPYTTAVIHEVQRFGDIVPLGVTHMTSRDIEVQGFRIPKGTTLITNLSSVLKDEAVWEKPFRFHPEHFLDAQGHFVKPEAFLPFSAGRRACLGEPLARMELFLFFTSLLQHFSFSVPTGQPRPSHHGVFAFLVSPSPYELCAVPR
observable: IC50
Param answer (str): number followed by unit.

Enquiry: // lookup IC50 for OCC1CCCC(c2ccc(O)cc2)CC1 (racemic)
Return: 73 µM

###

- system-tested: UniProt:Q92731
- Sequence (Q92731 whole entry, the tested form may be a part): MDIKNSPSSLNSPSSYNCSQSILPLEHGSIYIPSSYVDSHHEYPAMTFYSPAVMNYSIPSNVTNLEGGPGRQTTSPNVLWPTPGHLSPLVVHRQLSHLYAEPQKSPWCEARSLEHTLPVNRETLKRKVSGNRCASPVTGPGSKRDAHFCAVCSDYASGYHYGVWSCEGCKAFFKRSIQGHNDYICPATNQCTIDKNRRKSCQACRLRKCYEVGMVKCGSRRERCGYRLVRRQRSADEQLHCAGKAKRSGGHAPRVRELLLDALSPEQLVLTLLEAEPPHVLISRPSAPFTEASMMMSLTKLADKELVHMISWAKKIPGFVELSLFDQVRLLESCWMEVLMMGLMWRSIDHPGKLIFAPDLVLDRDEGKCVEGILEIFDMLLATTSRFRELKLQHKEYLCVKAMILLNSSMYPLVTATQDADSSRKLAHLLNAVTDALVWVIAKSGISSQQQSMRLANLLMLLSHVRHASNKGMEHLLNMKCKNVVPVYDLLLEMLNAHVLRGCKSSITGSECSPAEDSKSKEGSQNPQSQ
- test-description: Agonist activity at ERbeta (unknown origin) ligand binding domain assessed as fluorescein-labeled coactivator peptide recruitment by LanthaScreen TR-FRET assay
observable: pEC50
FYI, pEC50 means -log10 of a concentration in mol per litre.

Enquiry: // lookup pEC50 for OC[C@@H]1CCC[C@H](c2ccc(O)cc2)CC1
Return: 6.25

###

- system-tested: UniProt:P03372
- Sequence (P03372 whole entry): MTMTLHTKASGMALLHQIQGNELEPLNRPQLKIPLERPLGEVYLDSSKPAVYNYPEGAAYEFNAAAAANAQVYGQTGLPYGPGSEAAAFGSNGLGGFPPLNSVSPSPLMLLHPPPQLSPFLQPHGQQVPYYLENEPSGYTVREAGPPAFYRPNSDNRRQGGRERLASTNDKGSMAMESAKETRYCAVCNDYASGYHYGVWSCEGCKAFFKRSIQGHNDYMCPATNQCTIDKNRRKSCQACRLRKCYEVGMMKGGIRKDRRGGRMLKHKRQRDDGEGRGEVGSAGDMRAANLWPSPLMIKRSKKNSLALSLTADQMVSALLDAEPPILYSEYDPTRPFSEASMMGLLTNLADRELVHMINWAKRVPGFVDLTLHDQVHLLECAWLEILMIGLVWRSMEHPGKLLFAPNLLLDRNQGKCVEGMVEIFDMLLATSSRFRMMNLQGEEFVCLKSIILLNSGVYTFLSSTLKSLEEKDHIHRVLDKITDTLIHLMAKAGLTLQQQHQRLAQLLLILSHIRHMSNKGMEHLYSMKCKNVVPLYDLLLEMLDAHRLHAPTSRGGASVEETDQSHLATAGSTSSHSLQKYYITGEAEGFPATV
- test-description: Agonist activity at full length ERalpha (unknown origin) after 24 hrs by ERE-driven luciferase reporter gene assay
Listed here: items and their measured EC50.

Past entries and their recorded results:
{"compound": "O/N=C1\\CCCC(c2ccc(O)cc2)CC1 (racemic)", "EC50": "> 10 µM"}
{"compound": "OC[C@H]1CCC[C@H](c2ccc(O)cc2)CC1 (stereo in doubt)", "EC50": "> 3 µM"}
{"compound": "OCCC1CCCC(c2ccc(O)cc2)CC1 (racemic)", "EC50": "> 10 µM"}
{"compound": "OC[C@@H]1CCC[C@@H](c2ccc(O)cc2)CC1 (stereo in doubt)", "EC50": "> 10 µM"}
{"compound": "Oc1ccc(C2CCCC(O)CC2)cc1 (racemic)", "EC50": "> 10 µM"}
{"compound": "OC[C@@H]1CCC[C@H](c2ccc(O)cc2)CC1", "EC50": "> 11.6 µM"}
{"compound": "OC[C@H]1CCC[C@@H](c2ccc(O)cc2)CC1", "EC50": "> 10 µM"}

Enquiry: // lookup EC50 for OCC1CCCC(c2ccc(O)cc2)CC1 (racemic)
Return: 10.5 µM
